Sol @ pH 7.4 (ug/mL): recorded values
# measurement_notes: Solubility at pH 7.4
# Format: physicochemical

[in] Query: Sol @ pH 7.4 (ug/mL); subject: CCN1Cc2cc(-n3c(=O)ccc4cnc5ccc(-c6ccc(F)cc6)cc5c43)ccc2C1=O
[out] <0.10 ug/mL

[in] And then Cc1cc(N2CCNCC2)c(C#N)cc1-n1c(=O)ccc2cnc3ccc(-c4ccc(Cl)cc4)cc3c21 [Compound 11] , what is it?
[out] <1 ug/mL

[in] Continue with O=C1NC(=O)c2cc(-n3c(=O)ccc4cnc5ccc(-c6ccc(Cl)cc6)cc5c43)ccc21
[out] <1 ug/mL

[in] Do the same for Cc1c(C#N)cccc1-n1c(=O)ccc2cnc3ccc(-c4ccc(CN(C)C)cc4)cc3c21 please
[out] >66 ug/mL

[in] Similarly, CS(=O)(=O)c1ccc(-n2c(=O)ccc3cnc4ccc(-c5ccc(Cl)c(C(=O)N6CCOCC6)c5)cc4c32)cc1 ?
[out] 57.2 ug/mL

[in] // repeat for Cc1cc(-c2ccc3ncc4ccc(=O)n(-c5ccc(S(C)(=O)=O)cc5)c4c3c2)ccc1Cl and report
[out] <1.0 ug/mL

[in] Query O=C1NCc2cc(-n3c(=O)ccc4cnc5ccc(-c6ccc(CCN7CCOCC7)cc6)cc5c43)ccc21 next
[out] <1 ug/mL

====

# measurement_notes: Solubility at pH 7.4
# Assay type: physicochemical
outcome_measure: Sol @ pH 7.4 (ug/mL)

Answered examples (6):
compound	outcome_measure	reading_unit	result
CN(C)CCN1CCN(C(=O)c2ccc(-n3c(=O)ccc4cnc5ccc(-c6ccc(C7(N)CC7)cc6)cc5c43)cc2)CC1 [Compound 270]	Sol @ pH 7.4	ug/mL	0
NC(=O)c1cc(-c2ccc3ncc4ccc(=O)n(-c5ccc(C(=O)N6CCOCC6)cc5)c4c3c2)ccc1Cl [Compound 149]	Sol @ pH 7.4	ug/mL	8.8
CN1CC2CN(C(=O)c3ccc(-n4c(=O)ccc5cnc6ccc(-c7ccc(Cl)cc7)cc6c54)cc3)CC2C1 (centres unmarked) [Compound 141]	Sol @ pH 7.4	ug/mL	66.5
Cn1c(=O)n(-c2ccc(C(=O)O)cc2)c2c3cc(-c4ccc(Cl)cc4)ccc3ncc21 [Compound 435]	Sol @ pH 7.4	ug/mL	30.8
NC1(c2ccc(-c3ccc4ncc5ccc(=O)n(-c6ccc(C(=O)NC7CC7)cc6)c5c4c3)cc2)CC1 [Compound 97]	Sol @ pH 7.4	ug/mL	7.1
O=C(NC1CC1)c1ccc(-n2c(=O)ccc3cnc4ccc(-c5ccc(Cl)cc5)cc4c32)cc1 [Compound 87]	Sol @ pH 7.4	ug/mL	2.6

[A] Cc1cc(C(=O)NC2CC2)ccc1-n1c(=O)ccc2cnc3ccc(-c4ccc(F)cc4)cc3c21 [Compound 223]
[B] O=C(c1ccc(-n2c(=O)ccc3cnc4ccc(-c5ccc(Cl)cc5)cc4c32)cc1)N(CCO)CCO [Compound 105]
[C] O=C(NCCN1CCOCC1)c1ccc(-n2c(=O)ccc3cnc4ccc(-c5ccc(F)cc5)cc4c32)cc1 [Compound 268]
[in] Order these by Sol @ pH 7.4, descending, and give the full ranking. Hello, could you send the labels back in the order asked? Thank you.
[out] B, A, C

====

# measurement_notes: Microsomal stability (rat)
# Format: in vitro ADME
# study_conditions: rat microsomes
outcome_measure: Microsomal Stability (rat) T1/2 (min)

smiles_representation	Microsomal Stability (rat) T1/2 [min]
CCN(CC)CCCNC(=O)c1ccc(-n2c(=O)ccc3cnc4ccc(-c5ccc(Cl)cc5)cc4c32)cc1	2.8
Cc1ccc(C#N)cc1-n1c(=O)ccc2cnc3ccc(-c4ccc(N)nc4)cc3c21	12.7
COc1cc(C(=O)NC2CC2)ccc1-n1c(=O)ccc2cnc3ccc(-c4ccc(F)cc4)cc3c21	21.5
O=C(NCCN1CCCC1)c1ccc(-n2c(=O)ccc3cnc4ccc(-c5ccc(Cl)cc5)cc4c32)cc1	12.6
O=C(c1ccc(-n2c(=O)ccc3cnc4ccc(-c5ccc(Cl)cc5O)cc4c32)cc1)N1CCOCC1	10.5
CN1Cc2cc(-n3c(=O)ccc4cnc5ccc(-c6ccc(F)cc6)cc5c43)ccc2C1=O	19.2
CNC(=O)c1ccc(-n2c(=O)ccc3cnc4ccc(-c5ccc(Cl)cc5)cc4c32)cc1Cl	9
CN(C)CCCNC(=O)c1ccc(-n2c(=O)ccc3cnc4ccc(-c5ccc(Cl)cc5)cc4c32)cc1	24.4

[P] COc1cc(C(=O)NC2CC2)ccc1-n1c(=O)ccc2cnc3ccc(-c4ccc(Cl)cc4)cc3c21
[Q] CN(C(=O)c1ccc(-n2c(=O)ccc3cnc4ccc(-c5ccc(Cl)cc5)cc4c32)cc1)C1CC1
[in] Parameter metric = Microsomal Stability (rat) T1/2. Return the lower-valued option from P and Q . Refer to your chosen entry by its label in the reply.
[out] Q

====

# study_target: mTOR (Homo sapiens, UniProt P42345)
# measurement_notes: mTOR activity (no method described)
# Type: biochemical
outcome_measure: mTOR (nM)

compound	result
CCC(=O)NCCNC(=O)c1ccc(-n2c(=O)ccc3cnc4ccc(-c5ccc(Cl)cc5)cc4c32)cc1 [Compound 287]	2083

[P] O=C(c1ccc(-n2c(=O)ccc3c[n+]([O-])c4ccc(-c5ccc(Cl)cc5)cc4c32)cc1)N1CCOCC1 [Compound 148]
[Q] O=C(NCCCN1CCCCC1)c1ccc(-n2c(=O)ccc3cnc4ccc(-c5ccc(Cl)cc5)cc4c32)cc1 [Compound 260]
[in] Consider entries P and Q . Which has the numerically lower mTOR? Your answer should be the label attached to the chosen record.
[out] Q
(Q: 5024 nM, P: 18170 nM)

====

# measurement_notes: Microsomal stability (rat)
# Assay type: in vitro ADME
# study_conditions: rat microsomes
outcome_measure: Microsomal Stability (rat) T1/2 (min)

Use the examples below as a reference point.
compound	reading_unit	result
O=C(NCCCN1CCCC1)c1ccc(-n2c(=O)ccc3cnc4ccc(-c5ccc(F)cc5)cc4c32)cc1	min	8
CCCCNC(=O)c1ccc(-n2c(=O)ccc3cnc4ccc(-c5ccc(Cl)cc5)cc4c32)cc1	min	4
CN(C)Cc1ccc(-c2ccc3ncc4ccc(=O)n(-c5cccc(S(C)(=O)=O)c5)c4c3c2)cc1	min	9.45

[a] C[C@@H]1CN(C(=O)c2ccc(-n3c(=O)ccc4cnc5ccc(-c6ccc(Cl)cc6)cc5c43)cc2)C[C@H](C)O1
[b] O=C(c1ccc(-n2c(=O)ccc3cnc4ccc(-c5ccc(O)cc5)cc4c32)cc1)N1CCOCC1
[in] Compare a and b and name the one whose reported Microsomal Stability (rat) T1/2 is smaller. Which one? Tell me its label.
[out] a

====

# measurement_notes: Microsomal stability (rat)
# Assay type: in vitro ADME
# study_conditions: rat microsomes
outcome_measure: Microsomal Stability (rat) T1/2

smiles_representation	result
N#Cc1cccc(-n2c(=O)n(CCO)c3cnc4ccc(-c5ccc(Cl)cc5)cc4c32)c1	>30.0 min

[in] Microsomal Stability (rat) T1/2 lookup needed for CS(=O)(=O)c1ccc(-n2c(=O)ccc3cnc4ccc(-c5ccc(CN6CCCC6)cc5)cc4c32)cc1 , thanks.
[out] >30 min

[in] Same question for CS(=O)(=O)c1ccc(-n2c(=O)ccc3cnc4ccc(-c5ccc(Cl)c(C(N)=O)c5)cc4c32)cc1 please.
[out] >30.0 min

====

# study_target: mTOR (Homo sapiens)
# measurement_notes: mTOR activity (no method described)
# Format: biochemical
outcome_measure: mTOR (µM)

Known results for compounds:
compound	study_target	result
Cc1cc(N2CCNCC2)c(C#N)cc1-n1c(=O)n(C)c2cnc3ccc(-c4ccc(F)c(C#N)c4)cc3c21 [Compound 427]	mTOR (Homo sapiens)	30.6
O=C1NCc2cc(-c3ccc4ncc5ccc(=O)n(-c6ccc(C(=O)N7CCOCC7)cc6)c5c4c3)ccc21 [Compound 129]	mTOR (Homo sapiens)	0.8567
CN(C)CCN1CCN(C(=O)c2ccc(-n3c(=O)ccc4cnc5ccc(-c6ccc(Cl)cc6)cc5c43)cc2)CC1 [Compound 95]	mTOR (Homo sapiens)	1.731
CC1CC1NC(=O)c1ccc(-n2c(=O)ccc3cnc4ccc(-c5ccc(CN(C)C)cc5)cc4c32)cc1 (stereo not drawn) [Compound 177]	mTOR (Homo sapiens)	9.038
COc1cc(-c2ccc3ncc4ccc(=O)n(-c5ccc(C(=O)N6CCOCC6)cc5)c4c3c2)ccc1Cl [Compound 145]	mTOR (Homo sapiens)	1.214
CN1CCN(Cc2ccc(-c3ccc4ncc5ccc(=O)n(-c6ccc(C(=O)NC7CC7)cc6)c5c4c3)cc2)CC1 [Compound 307]	mTOR (Homo sapiens)	39.9
O=C(O)c1cc(-c2ccc3ncc4ccc(=O)n(-c5ccc(C(=O)N6CCOCC6)cc5)c4c3c2)ccc1Cl [Compound 117]	mTOR (Homo sapiens)	4.734
Cc1cc(C(=O)NC2CC2)ccc1-n1c(=O)ccc2cnc3ccc(-c4ccc(F)c(O)c4)cc3c21 [Compound 222]	mTOR (Homo sapiens)	0.8206
O=C(NC1CC1)c1ccc(-n2c(=O)ccc3cnc4ccc(-c5ccc(F)cc5)cc4c32)cc1 [Compound 91]	mTOR (Homo sapiens)	4.415
COc1cc(C(=O)NC2CC2)ccc1-n1c(=O)ccc2cnc3ccc(-c4ccc(Cl)c(O)c4)cc3c21 [Compound 273]	mTOR (Homo sapiens)	4.164

[P] N#Cc1ccc2ncc3ccc(=O)n(-c4ccc(C(=O)N5CCOCC5)cc4)c3c2c1 [Compound 245]
[Q] COc1cc(-c2ccc3ncc4c(c3c2)n(-c2cccc(C#N)c2)c(=O)n4C)ccc1Cl [Compound 403]
[R] O=C(NC1CCNC1)c1ccc(-n2c(=O)ccc3cnc4ccc(-c5ccc(Cl)cc5)cc4c32)cc1 (stereo not drawn) [Compound 96]
[S] O=C(NC1CN(CCO)C1)c1ccc(-n2c(=O)ccc3cnc4ccc(-c5ccc(Cl)cc5)cc4c32)cc1 [Compound 94]
[in] Put these in order: smallest mTOR first, largest last. Give your ranking as a list of the labels in the requested order.
[out] R, S, P, Q

The reported measurements were obtained from patent US11753408B2.
